Tested on: GRK7
Conditions: concentration: 1 μM, replicates: in singlicate; n = 1
For each entry below, report its %Inh value.
Give bare numbers, in %.

The following compounds have reported results that may help.
>  <compound>
COc1ccc(Nc2nccc(N3CCC(NC(=O)C(C)c4ccc(Cl)cc4)C3)n2)cc1 (stereo not drawn)

>  <test target>
GRK7

>  <%Inh / %>
0

$$$$
>  <compound>
CC(=O)c1c(C)c2cnc(Nc3ccn(C)n3)nc2n(C2CCCC2)c1=O

>  <test target>
GRK7

>  <%Inh / %>
0

$$$$
>  <compound>
COc1ccc(Nc2nccc(N3CCC(NC(=O)c4cc5ccccc5s4)C3)n2)cc1 (stereo not drawn)

>  <test target>
GRK7

>  <%Inh / %>
0

$$$$
>  <compound>
O=C(Nc1n[nH]c2nc(-c3cccs3)c(Br)cc12)C1CC1

>  <test target>
GRK7

>  <%Inh / %>
17

$$$$
>  <compound>
COc1nccc(-c2c(-c3ccc(F)cc3)ncn2CCCN2CCOCC2)n1

>  <test target>
GRK7

>  <%Inh / %>
37

$$$$
>  <compound>
COc1ccc(Nc2nccc(-c3ccc(NC(=O)c4cc5cc(F)ccc5[nH]4)cc3)n2)cc1

>  <test target>
GRK7;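 also: KINOMEscan kinase panel screen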

>  <%Inh / %>
0

$$$$

// batch mode: one %Inh value per listed entry
1. Cc1ccccc1-c1cc(-c2c[nH]nc2-c2ccccn2)ccn1
2. FC(F)(F)c1ccccc1-c1cc(-c2c[nH]nc2-c2ccccn2)ccn1
3. COc1ccc(Nc2nccc(NCCNC(=O)Nc3cc(C)ccc3C)n2)cc1
4. O=C1NC(=O)C(c2ccc(Cl)cc2)=C1Nc1cccc(Cl)c1
5. COC(=O)c1cccc(NC(=O)NC2CCN(c3ccnc(Nc4ccc(OC)cc4)n3)C2)c1 (stereo not drawn)
6. CSc1ccc(-c2nc3n(c2-c2ccncc2)CCC3)cc1
7. CS(=O)(=O)Cc1ccc(Nc2nccc(-c3c(-c4cccc(NC(=O)C5CCCCC5)c4)nn4ncccc34)n2)cc1
8. CNc1nc(-c2ccc3c(N)n[nH]c3c2)cc(N2C[C@@H](C(=O)NC3CCCCC3)OC[C@H]2C)n1

1. 0
2. 0
3. 0
4. 30
5. 0
6. 0
7. 5
8. 0

// batch mode: one %Inh value per listed entry
1. c1ccc(-c2ccnc3[nH]ccc23)cc1
2. Cc1ccc(NC(=O)Nc2ccc(Cl)c(C(F)(F)F)c2)cc1-c1ccc(C(=O)Nc2ccncc2)cc1
3. COc1cccc(C2=C(Nc3cc(Cl)c(O)c(Cl)c3)C(=O)NC2=O)c1
4. COc1ccc(CSc2nnc(-c3ccc4c(c3)CCO4)o2)cc1

1: 0; 2: 0; 3: 0; 4: 0

Entry source: paper PMC5540273
